test system: LXRb homodimer (NR concentration 270 nM); assay: PBM binding z-score (relative to random genomic background probes); higher = stronger binding; sequences stand for … in GC…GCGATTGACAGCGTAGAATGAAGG
Entries are sorted into classes by PBM binding z-score as follows: band A (below -0.6), band B (-0.6 to below 0.02), band C (0.02 or more)

1) TCATATAGGTAATACAGGTGAAAGCCGGCATCTA :: band B
2) GCTTACGGGTCAAAGGTTGTAGCATGAATAGAAT :: band C
3) GCTGACGGGTCAAAGGTTATAGCATGAATAGAAT :: band B
4) TCTCGGATGACACGAAGGTCAGAGCTTTCCAGAG :: band A
5) TCTATTAGTCGATTAGGGCAACCGAAACAGCGGA :: band C
6) CGAACGATGGCATGAGTTGATAGCAAATGCCGAT :: band A
7) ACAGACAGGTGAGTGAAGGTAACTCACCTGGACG :: band B
8) TCTAGTAGGTTACCAATGGGGCATTCAGCTTTCT :: band C
9) TCTCGGAGGACACGAAGCTCAGAGCTTTCCAGAG :: band A
10) AGAATTAGGTTACCAAAGATCAGGGAAACGCTTG :: band B
11) TTACCAAGGTGAGCTGAGGTCCTTGATCCAACTC :: band A
12) TCAGACAGGTGAAGGTAACTCTGGTACGCAGTCG :: band B
13) TCTTGTAGATCAAATGTTAAGAAAGCCGAAGCCT :: band C
14) CGTCCTAGGTCAATGCTAGGTCAGTGAAAGCATT :: band C
15) ATATGTAGGTTAGCTGGGGTCATTCAGACTAGGC :: band C
16) AGAATGAGGTTATTAAGCTCAGGGAATTGCGGTC :: band B
17) CCTAGCGGGCCAGGGTCACTCAAGCATTTCGCTT :: band A
18) TCACCAAGGTGAAAGGTCGTTGATGCACGCCTTG :: band A
19) ACAGACAGGTGAGTGAAGGAAACTCAGCTGGACG :: band A
20) ATCGACAGGTCGAAGGTGAGTATACCCACCCGAA :: band B
21) ATCTCTTGGTAAAAGTTCAGTGAATCCCGAGGAT :: band C

---

test system: RXRa DBDmut IVT, anti-RXR (DBD mutation: RXRa K156A/R161A, NR concentration 90 nM); test: PBM binding z-score (relative to random genomic background probes); higher = stronger binding; sequences stand for … in GC…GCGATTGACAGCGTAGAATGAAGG
# key: entry, value: PBM binding z-score
Assay Readout: PBM binding z-score

1) CTCGAAAGGTCGTGCTCAAGTGAGTATACCAAAC :: 2.31
2) TCTCGGAGGACACGAAGGTCAGTGCTTTCCAGAG :: 0.969
3) GGAACGAAGGCATTCGAGTTGATAGCATGGCGAT :: -0.552
4) CCTACTGGGCCACGAAAGGTCATTGCTTCAGTGA :: 0.871
5) CAAACTAGGTCAAGAGGTCAAATTCCGCTTCCCG :: 2.86
6) AATACAGGGTCAACGTAGGCCAGAGTACGCACAG :: 3.18
7) AGAATGTGGTTATACGTAGATCAGGGAAGAAAGT :: 0.187
8) CAAACTAGGTCAAAGGCCAAAGTCGAGCCAACCA :: 1.8
9) CCAGAAAGGTGAGAAGGTAACTCAGCCTCGATTA :: 0.256
10) TCCTGTAGATCAACAGGAGGTTAAGAAAGATCGA :: -0.0672
11) TCTCGAAGGACACGAAAGGTCAGAGCTCGACATC :: 1.37
12) GATACAGGGTCAGCTAGAGGCTAGAGTATGGAAA :: 0.988
13) GTAACAAGGTGAATAGGTCGTTGATGAGTAGGCG :: 0.149
14) AGAAAGAGGGCAATGAGTTGATAGCACGGGTGGC :: 1.7
15) GATACAGGGTCAGCTAGAGTCCAGAGTATGGAAA :: 1.39
16) GATACAGGATCAGCTAGAGGCCAGAGTATGGAAA :: -0.823
17) ATCTCTAGGTAACCAAGTTCAATGAATGCCGAAC :: 1.64
18) CCAAGTTGGTCAGGAGGTCACACACCGGATATGA :: 1.39
19) CGTCAAAGTTCAACTAAGGTAACGTTAAGCACGC :: 4.55
20) CCTATTGGGCCATCAGGTCATTGATATCAACGTT :: 0.643
21) CAAACTAGCTCACAGAGGTCAAAGTCCGTGCGTA :: 1.5
22) TCTAGCAGGCCAGAGGTTCACTCAAGAGGTACGG :: 0.415
23) TTACCTAGGTGAAGGTCGTTGATCCCTCTGTAGA :: -0.143
24) CCTCGGAGGACAACAGGAGGGCAGAGCTGCCAGA :: -0.00274

---

# key: entry, value: PBM binding z-score
test system: VDR homodimer (NR concentration 270 nM); test: PBM binding z-score (relative to random genomic background probes); higher = stronger binding; sequences stand for … in GC…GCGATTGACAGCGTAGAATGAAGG
Assay Readout: PBM binding z-score

1. TCTTGTAGATCAAGCTGGTTAAGAAAGCCTGAGT :: -0.547
2. TCGAGTCGGTTAGTCGGGGCATTCAGCCAACATA :: 0.101
3. CTAACTAGGTCAAGGACAGTGAATCTCCGCACGC :: 0.398
4. CGTCAAAGTTCAAGGTAACGTTACAGAAAGCAGC :: 3.32

---

# key: entry, value: PBM binding z-score
tested on: PPARg DBDmut:RXRa IVT, anti-PPARg (DBD mutation: PPARg1 K132A/R137A, NR concentration 270 nM, RXRa partner concentration 90 nM); test: PBM binding z-score (relative to random genomic background probes); higher = stronger binding; sequences stand for … in GC…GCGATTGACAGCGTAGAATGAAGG
Assay Readout: PBM binding z-score

1. ATGTCTAGGTAAGACTCAGTTCAGTGAAGAACGC :: 0.297
2. CGTCCAAGGTCAAAAGTCAGTGAAGAGATGACGG :: 0.212
3. ATCGAAATGTCGACGAGGTGAGTATACACCGTTT :: 0.668
4. GGAACGAGGGCAAAGTGGATAGCATCTGTCGACG :: 0.652
5. TCGAGTAGGTTACCAATGGGGCATTCTGCTTTCT :: -0.301
6. AGAACGAGGGCACGCTGAGTTGATAGCAGAGTAG :: 0.29

---

tested on: RARb homodimer (NR concentration 270 nM); test: PBM binding z-score (relative to random genomic background probes); higher = stronger binding; sequences stand for … in GC…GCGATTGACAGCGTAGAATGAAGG
Outcome label depends on PBM binding z-score relative to 2: at/above gives TRUE, below gives FALSE.

1) CCTCGGAGGACAACAGGAGGTGAGAGCTGCCAGA :: FALSE
2) GGAACGAGGGCAAGTTGATGGCAGAGTTTGATGG :: FALSE
3) TCTATTCGTTGATTAGGGCAACCGAAACAGCGGA :: FALSE
4) GATACAGGGTCAGCTAGAAGCCAGAGTATGGAAA :: TRUE
5) ATATGTAGCTTAGCTGGGGTCATTCAGACTAGGC :: TRUE
6) ACTAGTTGGTCATCTGAGGTCACACACAATTCGG :: TRUE
7) CGAAATAGGTCATTGACAGGACAGTGAATAGTAA :: TRUE
8) TCTAGCAGGCCAGAGGGTAACTCAAGAGGTACGG :: FALSE
9) AGTCAAAGTTCACTAGTTAACGTAAGATTCAGCT :: TRUE
10) TCTTGTAGATCAAAGGTTAAGATAGCCGAAGCCT :: FALSE
11) TCCTATAGGTAAAGGTGAAAGTCGAACGATATGA :: FALSE
12) CCTTTCGGGTCACGAGGTTATAGCACGACGAGCG :: TRUE
13) GCTAGTTGGTCAGTAAAAGGTTACACACCGGTCG :: TRUE
14) ACCGACAGGTGATGAAGGTAACTCAGGCTATCAT :: FALSE
15) ATCTCTAGGTAAAAGTTCAGTGAATCCCGAGGAT :: TRUE
16) TCTAGCAGGACAGAGGGTCACTCAAGAGGTACGG :: TRUE
17) GCTATTAGTGGAAAGGGCAACCGAATGATTCTCG :: FALSE
18) GCGACTGGGGCAAAGCAGGTTACCATAAGGTTGG :: FALSE
19) ACTCGGAGGACAAAGGTCTGAGCTACGCCAGTGA :: FALSE
20) CCTATTAGTTGACCATAAGGGCAACCGCAGCTCG :: TRUE
21) CCGACTGGGGCATTAGGTTACCATAAGCCAGCCC :: FALSE
22) CCTAGTTCGTCAAGGTCACACACGCTATAGGTAC :: TRUE
23) ATCTCTAGGTAACAAGCTCAGTGAAAGAGAGGAC :: FALSE
